Sourced from ChEMBL document CHEMBL1148844

Tested Target: A disintegrin and metalloproteinase with thrombospondin motifs 5 (Homo sapiens, UniProt Q9UNA0)
Sequence (Q9UNA0 whole entry): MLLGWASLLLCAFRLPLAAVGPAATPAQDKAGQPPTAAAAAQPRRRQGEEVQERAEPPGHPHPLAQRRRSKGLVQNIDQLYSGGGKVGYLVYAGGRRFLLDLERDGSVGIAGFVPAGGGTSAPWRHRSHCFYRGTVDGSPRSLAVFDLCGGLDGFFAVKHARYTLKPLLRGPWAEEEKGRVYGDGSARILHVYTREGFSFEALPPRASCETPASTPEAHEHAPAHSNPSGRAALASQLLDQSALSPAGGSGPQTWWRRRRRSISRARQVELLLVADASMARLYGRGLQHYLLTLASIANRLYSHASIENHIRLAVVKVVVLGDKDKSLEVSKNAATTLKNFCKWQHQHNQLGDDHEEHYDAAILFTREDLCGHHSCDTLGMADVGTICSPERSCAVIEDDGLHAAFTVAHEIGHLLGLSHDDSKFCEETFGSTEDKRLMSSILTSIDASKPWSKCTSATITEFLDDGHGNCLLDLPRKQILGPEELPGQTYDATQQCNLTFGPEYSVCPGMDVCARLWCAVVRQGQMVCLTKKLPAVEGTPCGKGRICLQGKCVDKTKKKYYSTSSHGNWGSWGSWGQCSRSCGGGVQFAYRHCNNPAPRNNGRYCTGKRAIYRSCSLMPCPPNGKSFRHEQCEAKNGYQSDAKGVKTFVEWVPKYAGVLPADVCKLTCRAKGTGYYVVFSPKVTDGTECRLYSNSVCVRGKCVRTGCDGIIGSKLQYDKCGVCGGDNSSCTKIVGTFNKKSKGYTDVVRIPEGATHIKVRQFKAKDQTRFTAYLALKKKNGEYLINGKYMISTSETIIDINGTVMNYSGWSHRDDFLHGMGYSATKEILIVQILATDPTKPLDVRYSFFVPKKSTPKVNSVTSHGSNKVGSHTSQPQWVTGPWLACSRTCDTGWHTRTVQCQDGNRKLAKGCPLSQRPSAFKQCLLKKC
Hi! Just check whether IC50 is below 9 µM. Below gives 1, equal or above gives -1.

Consider the worked cases shown below.
O=C1NC(=S)S/C1=C\c1c(C(F)(F)F)nn(-c2ccccc2)c1SCc1ccc(Cl)cc1    1
O=C1NC(=S)S/C1=C\c1c(-c2ccccc2)nn(C2CCCCC2)c1N1CCN(c2ncccn2)CC1    1
O=C1NC(=S)S/C1=C\c1c(C(F)(F)F)nn(-c2ccccc2)c1SCc1ccccc1    -1

We next turn to a different compound, shown below.
Please check: IC50 for `O=C1NC(=S)S/C1=C\c1c(C(F)(F)F)nn(-c2ccccc2)c1N1CCN(c2ccc(Cl)cc2)CC1` , strictly under 9 µM or not?
1
